molecular target: A2A adenosine receptor (Homo sapiens, UniProt P29274)
Sequence (P29274 whole entry): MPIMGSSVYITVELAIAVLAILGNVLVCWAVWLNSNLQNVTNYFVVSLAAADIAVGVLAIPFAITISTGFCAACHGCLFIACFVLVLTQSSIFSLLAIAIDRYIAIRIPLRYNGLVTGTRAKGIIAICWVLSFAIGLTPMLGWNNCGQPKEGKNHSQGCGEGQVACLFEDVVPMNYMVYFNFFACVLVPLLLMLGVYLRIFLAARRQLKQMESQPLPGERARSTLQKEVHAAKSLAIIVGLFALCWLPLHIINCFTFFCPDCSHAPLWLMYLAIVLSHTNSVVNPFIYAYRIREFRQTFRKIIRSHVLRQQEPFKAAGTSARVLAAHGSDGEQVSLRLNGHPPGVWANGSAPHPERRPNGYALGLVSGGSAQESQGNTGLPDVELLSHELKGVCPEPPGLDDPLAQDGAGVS
recorded endpoint: Ki (nM)
Numbers only here, please. The scale is nM.

CCCn1c(=O)c2[nH]c(-c3ccc(OCC(=O)NCc4ccc(F)cc4)cc3)nc2n(CCC)c1=O [Compound 21]    33.6

--- query ---
Item CCCn1c(=O)c2[nH]c(-c3ccc(OCC(=O)N[C@H](C)c4ccccc4)cc3)nc2n(CCC)c1=O [Compound 24] was tested on A2A adenosine receptor (Homo sapiens, UniProt P29274); the reported Ki is 64.4

====

target: A2A adenosine receptor (Rattus norvegicus); assay: Radioligand binding, rat A2A ([3H]CGS21680, HEK-293); settings: rat (r), HEK-293, [3H]CGS21680
Sequence (P30543 whole entry): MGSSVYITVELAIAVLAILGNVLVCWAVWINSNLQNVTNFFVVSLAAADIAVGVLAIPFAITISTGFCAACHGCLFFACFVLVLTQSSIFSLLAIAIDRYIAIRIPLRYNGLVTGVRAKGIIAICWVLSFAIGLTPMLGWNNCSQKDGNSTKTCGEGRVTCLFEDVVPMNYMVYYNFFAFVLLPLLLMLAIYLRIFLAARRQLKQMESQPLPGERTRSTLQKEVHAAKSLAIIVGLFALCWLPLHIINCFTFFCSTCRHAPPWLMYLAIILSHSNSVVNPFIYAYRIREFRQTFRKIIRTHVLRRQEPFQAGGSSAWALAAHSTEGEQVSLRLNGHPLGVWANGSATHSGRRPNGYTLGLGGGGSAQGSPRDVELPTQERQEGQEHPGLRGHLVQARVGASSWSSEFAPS
recorded endpoint: log10 of Ki (log10 of the value in nM)
Scale: log10; quantity: Ki; unit before log: nM

CCCn1c(=O)c2[nH]c(-c3ccc(OCC(=O)NCc4ccc(F)cc4)cc3)nc2n(CCC)c1=O    2.40
CCCn1c(=O)c2[nH]c(-c3ccc(OCC(=O)NCc4ccc(Br)cc4)cc3)nc2n(CCC)c1=O    2.05
CCCn1c(=O)c2[nH]c(-c3ccc(OCC(=O)NCc4ccc(C)cc4)cc3)nc2n(CCC)c1=O    2.32
CCCn1c(=O)c2[nH]c(-c3ccc(OCC(=O)NC4CCCC4)cc3)nc2n(CCC)c1=O    1.28
CCCn1c(=O)c2[nH]c(-c3ccc(OCC(=O)N[C@@H](C)c4ccccc4)cc3)nc2n(CCC)c1=O    2.22

--- query ---
// log10 of Ki value for CCCn1c(=O)c2[nH]c(-c3ccc(OCC(=O)NC4CCCCC4)cc3)nc2n(CCC)c1=O : 1.29

====

# kon values compiled below
molecular target: human A2BAR (Homo sapiens, UniProt P29275); construct: host or cells: CHO-spap; test: [3H]PSB-603 competition association assay; format: binding; conditions: read-out: kon (converted)
Sequence (P29275 whole entry): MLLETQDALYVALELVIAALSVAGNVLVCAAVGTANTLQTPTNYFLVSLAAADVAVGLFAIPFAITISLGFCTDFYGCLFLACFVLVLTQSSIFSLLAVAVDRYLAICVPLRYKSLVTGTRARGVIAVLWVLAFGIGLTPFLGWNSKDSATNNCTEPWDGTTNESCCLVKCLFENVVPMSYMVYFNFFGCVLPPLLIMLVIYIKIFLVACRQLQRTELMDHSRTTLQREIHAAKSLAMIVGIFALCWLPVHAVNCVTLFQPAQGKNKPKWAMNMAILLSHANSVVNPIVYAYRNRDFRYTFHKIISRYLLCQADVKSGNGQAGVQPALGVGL
Numbers only here, please. The scale is M⁻¹ s⁻¹.

Example entries and their recorded answers appear below.
CCCn1c(=O)c2[nH]c(-c3ccc(OCC(=O)Nc4ccccc4)cc3)nc2n(CCC)c1=O [Compound 8]    250000
CCCn1c(=O)c2[nH]c(-c3ccc(OCC(=O)NCc4ccc(F)cc4)cc3)nc2n(CCC)c1=O [Compound 21]    283000
CCCn1c(=O)c2[nH]c(-c3ccc(OCC(=O)Nc4ccc(C(=O)OC)cc4)cc3)nc2n(CCC)c1=O [Compound 17]    100000
CCCn1c(=O)c2[nH]c(-c3ccc(OCC(=O)Nc4ccc([N+](=O)[O-])cc4)cc3)nc2n(CCC)c1=O [Compound 14]    23300
CCCn1c(=O)c2[nH]c(-c3ccc(OCC(=O)NCc4ccc(Br)cc4)cc3)nc2n(CCC)c1=O [Compound 22]    117000
CCCn1c(=O)c2[nH]c(-c3ccc(OCC(=O)N[C@@H](C)c4ccccc4)cc3)nc2n(CCC)c1=O [Compound 25]    183000

--- query ---
// kon value for CCCn1c(=O)c2[nH]c(-c3ccc(OCC(=O)N[C@H](C)c4ccccc4)cc3)nc2n(CCC)c1=O [Compound 24] : 367000

====

molecular target: human A2BAR (Homo sapiens); construct: host or cells: CHO-spap; test: [3H]PSB-603 displacement on CHO-spap-hA2BAR membranes; type: binding
recorded endpoint: Ki (nM)
Numbers only here, please. The scale is nM.

// Ki value for CCCn1c(=O)c2[nH]c(-c3ccc(OCC(=O)Nc4ccc(C(C)=O)cc4)cc3)nc2n(CCC)c1=O : 3.03
